# ASSAY_TARGET: recombinant soluble homotrimeric HA of A/Hong Kong/2108/03 (H9N2) (Influenza A virus A/HK/2108/2003(H9N2))
# PROTOCOL_SUMMARY: HA microarray, BCC supernatant
# COND: remark: other sources report otherwise
If the reported Trimeric HA Binding: RLU equals or exceeds 2000 RLU, assign true. If not, assign false.

Solved entries (count: 4):
- TCN-550 (5096_F06) (antibody, V domains shown) VH: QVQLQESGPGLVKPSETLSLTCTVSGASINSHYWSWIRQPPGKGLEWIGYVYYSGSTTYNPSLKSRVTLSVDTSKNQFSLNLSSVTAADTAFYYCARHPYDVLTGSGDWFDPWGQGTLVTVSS VL: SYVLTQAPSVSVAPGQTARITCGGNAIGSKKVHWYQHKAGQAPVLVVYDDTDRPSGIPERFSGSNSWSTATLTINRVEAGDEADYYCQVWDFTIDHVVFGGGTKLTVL: true
- TCN-538 (3206_O17) (antibody, V domains shown) VH: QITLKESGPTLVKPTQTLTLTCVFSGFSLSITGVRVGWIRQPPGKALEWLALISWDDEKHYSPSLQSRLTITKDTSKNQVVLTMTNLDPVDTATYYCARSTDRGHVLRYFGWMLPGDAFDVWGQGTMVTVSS VL: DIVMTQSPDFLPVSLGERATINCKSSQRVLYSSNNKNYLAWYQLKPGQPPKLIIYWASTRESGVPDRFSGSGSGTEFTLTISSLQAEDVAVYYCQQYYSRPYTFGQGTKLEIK: false
- TCN-527 (5086_C06) (antibody, V domains shown) VH: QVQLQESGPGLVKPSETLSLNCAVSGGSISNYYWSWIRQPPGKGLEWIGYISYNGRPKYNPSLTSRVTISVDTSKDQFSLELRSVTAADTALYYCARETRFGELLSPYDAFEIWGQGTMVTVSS VL: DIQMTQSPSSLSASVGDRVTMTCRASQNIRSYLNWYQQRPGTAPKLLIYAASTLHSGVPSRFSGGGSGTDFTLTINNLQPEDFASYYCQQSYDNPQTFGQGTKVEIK: true
- TCN-522 (3212_I12) (antibody, V domains shown) VH: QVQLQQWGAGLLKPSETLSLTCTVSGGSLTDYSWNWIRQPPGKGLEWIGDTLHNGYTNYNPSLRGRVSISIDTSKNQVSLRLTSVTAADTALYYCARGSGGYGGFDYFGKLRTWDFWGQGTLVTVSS VL: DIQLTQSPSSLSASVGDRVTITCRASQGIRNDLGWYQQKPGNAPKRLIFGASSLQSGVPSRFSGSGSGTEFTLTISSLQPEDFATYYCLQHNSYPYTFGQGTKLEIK: false

We next turn to a different binder, shown below.
Confirm if Trimeric HA Binding: RLU reported for the binder TCN-528 (5087_P17) (antibody, V domains shown) VH: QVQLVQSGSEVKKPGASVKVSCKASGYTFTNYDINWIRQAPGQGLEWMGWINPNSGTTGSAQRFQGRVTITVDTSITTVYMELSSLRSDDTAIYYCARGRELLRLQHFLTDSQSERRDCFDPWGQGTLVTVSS VL: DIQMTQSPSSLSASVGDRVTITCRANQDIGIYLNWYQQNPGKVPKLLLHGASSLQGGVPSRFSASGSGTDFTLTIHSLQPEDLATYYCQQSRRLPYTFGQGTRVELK is 2000 RLU or above.
true
